target: MBP-NCR247_1-4,2-3; assay: UV/vis spectroscopic titration of preformed MBP (10 uM) plus NCR247_1-4,2-3 (10 uM) with heme (4-45 uM), 30 min incubation, evaluated near 420 nm with a 1:1 model.; assay type: binding; conditions: read-out: KD value, stoichiometry 1:1 (MBP-NCR247_1-4,2-3:heme)
Measurement label: Kd (µM)
Use µM as the unit, but write only the number.

# value lookup — system MBP-NCR247_1-4,2-3, readout Kd, item C=CC1=C(C)c2cc3[nH]c(cc4nc(cc5[nH]c(cc1n2)c(C)c5CCC(=O)O)C(CCC(=O)O)=C4C)c(C)c3C=C.[Fe+3] [heme]
14.9
